test: qHTS of pediatric cancer cell lines to identify multiple opportunities for drug repurposing: Primary screen for BT-37 cells (AID 1347094); conditions: BT-37 viability, CellTiter-Glo luminescence, 48 h; series mostly up to 57.3 µM
Results filed as inconclusive are left out. Calls of active or inactive are those of the source. Calls come from the whole dose curve; as a rule, active = well fitted cell-killing curve with a large enough effect; inconclusive = small, poorly fitted or top-dose-only effect; inactive = flat fitted curve, though single readings scatter.
Outcomes you can answer with include only these: t for active, f for inactive

CN1CCC[C@@H]1Cc1c[nH]c2ccc(CCS(=O)(=O)c3ccccc3)cc12	f
C[C@@H](O)[C@H](N)C(=O)O	f
CC[C@H]1CN2CCc3cc(OC)c(OC)cc3[C@@H]2C[C@@H]1C[C@H]1NCCc2cc(OC)c(OC)cc21	t

IN: Outcome logged for Cn1c(=O)c2c(ncn2CC2OCCO2)n(C)c1=O in this assay:
OUT: f

IN: Per the assay record, what outcome was assigned to O=C1NC(=O)[C@@]2(CCOc3ccc(F)cc32)N1 ?
OUT: f

IN: Called result for Cc1cc2c(cc1S(N)(=O)=O)S(=O)(=O)CCC2
OUT: f
